Attribute: δ, peak two-photon cross section per photon
test: Measurement of photophysical properties in MOPS buffer; assay type: physicochemical; conditions: MOPS buffer pH 7.4; ±15%
experimental-readout: δ, peak two-photon cross section per photon

[[record]]
compound = "CN(C(=O)OCCSSCCN)c1ccc2cc(-c3nc4ccc(C(=O)NCC[P+](c5ccccc5)(c5ccccc5)c5ccccc5)cc4s3)ccc2c1 [SSH-Mito]"
recorded_value = "95 GM"

[[record]]
compound = "CNc1ccc2cc(-c3nc4ccc(C(=O)NCC[P+](c5ccccc5)(c5ccccc5)c5ccccc5)cc4s3)ccc2c1.[Br-] [Compound No. 6]"
recorded_value = "550 GM"

